Biological target: PRMT5/MEP50 (Homo sapiens)
Construct: Flag-PRMT5; 6His-MEP50
Sequence (O14744 with tags, fused parts or gaps): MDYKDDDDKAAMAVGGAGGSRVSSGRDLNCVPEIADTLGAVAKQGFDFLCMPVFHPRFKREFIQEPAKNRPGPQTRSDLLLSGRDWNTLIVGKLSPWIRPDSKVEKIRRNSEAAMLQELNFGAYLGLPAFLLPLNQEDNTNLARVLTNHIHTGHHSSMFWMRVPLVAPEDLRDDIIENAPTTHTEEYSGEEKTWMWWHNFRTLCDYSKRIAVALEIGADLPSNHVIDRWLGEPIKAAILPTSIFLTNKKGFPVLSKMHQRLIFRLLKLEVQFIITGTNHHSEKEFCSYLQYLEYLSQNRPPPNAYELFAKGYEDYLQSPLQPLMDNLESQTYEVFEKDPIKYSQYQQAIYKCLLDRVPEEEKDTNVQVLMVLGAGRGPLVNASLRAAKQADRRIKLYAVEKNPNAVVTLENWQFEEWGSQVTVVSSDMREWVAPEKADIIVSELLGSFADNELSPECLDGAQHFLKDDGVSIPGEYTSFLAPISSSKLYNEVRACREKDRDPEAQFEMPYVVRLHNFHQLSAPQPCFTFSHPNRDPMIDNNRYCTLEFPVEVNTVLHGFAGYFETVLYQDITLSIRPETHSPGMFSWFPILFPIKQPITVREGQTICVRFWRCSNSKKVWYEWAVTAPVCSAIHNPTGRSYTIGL
Sequence (Q9BQA1 with tags, fused parts or gaps partner): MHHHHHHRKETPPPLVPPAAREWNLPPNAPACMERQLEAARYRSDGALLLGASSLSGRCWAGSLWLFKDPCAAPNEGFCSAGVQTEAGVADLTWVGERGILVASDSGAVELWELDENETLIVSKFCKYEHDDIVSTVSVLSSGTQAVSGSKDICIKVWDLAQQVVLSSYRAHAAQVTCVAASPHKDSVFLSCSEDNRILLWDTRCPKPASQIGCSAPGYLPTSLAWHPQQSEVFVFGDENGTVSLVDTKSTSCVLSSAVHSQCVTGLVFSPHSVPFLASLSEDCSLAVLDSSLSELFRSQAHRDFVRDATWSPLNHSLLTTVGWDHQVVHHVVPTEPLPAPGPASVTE
Assay: PRMT5 Biochemical Assay (PRMT5/MEP50 enzyme assay on peptide substrate, 3H-SAM Flashplate)
pIC50: −log10 of the molar value.
quantityMeasured: pIC50

Examples from the recorded data:
| molecule | quantityMeasured | obsValue |
| --- | --- | --- |
| Cn1cnc2ccc(-c3nccc(NCC(O)CN4CCc5ccccc5C4)n3)cc21 (stereo not shown) [Compound 120] | pIC50 | 5.00 to 6.00 |
| OC(COc1cccc(-c2ccc(F)cc2)c1)CN1CCc2ccccc2C1 (stereo not shown) [Compound 77] | pIC50 | 5.00 to 6.00 |
| CN(Cc1ccc(OCC(O)CN2CCc3ccccc3C2)cc1)C1CCCC1 (stereo not shown) [Compound 24] | pIC50 | 5.00 to 6.00 |
| OC(COc1cccc(-c2cccc(Cl)c2)c1)CN1CCc2ccccc2C1 (stereo not shown) [Compound 91] | pIC50 | 5.00 to 6.00 |
| OC(COc1cccc(N2CCc3[nH]nc(-c4ccccc4)c3C2)c1)CN1CCc2ccccc2C1 (stereo not shown) [Compound 194] | pIC50 | 5.00 to 6.00 |
| Cn1cnc2ccc(-c3ccnc(NCC(O)CN4CCc5ccccc5C4)n3)cc21 (stereo not shown) [Compound 119] | pIC50 | 6.00 to 7.00 |

Lab note: need pIC50 with PRMT5/MEP50 (Homo sapiens) for entry CC(=O)N1CC(Nc2cc(CNCC(O)CN3CCc4ccccc4C3)ncn2)C1 (stereo not shown) [Compound 311] , please look it up. < 5.00

Lab note: need pIC50 with PRMT5/MEP50 (Homo sapiens) for entry Cn1cncc1C(=O)Nc1cccc(OCC(O)CN2CCc3ccccc3C2)c1 (stereo not shown) [Compound 195] , please look it up. 5.00 to 6.00

Lab note: need pIC50 with PRMT5/MEP50 (Homo sapiens) for entry OC(COCc1ccc(Cl)cc1Cl)CN1CCc2ccccc2C1 (stereo not shown) [Compound 281] , please look it up. 5.00 to 6.00

Lab note: need pIC50 with PRMT5/MEP50 (Homo sapiens) for entry O=C(c1ccc(Cn2ccc(-c3ccc(OCC(O)CN4CCc5ccccc5C4)cc3)n2)cc1)N1CCCC1 (stereo not shown) [Compound 34] , please look it up. 5.00 to 6.00

Lab note: need pIC50 with PRMT5/MEP50 (Homo sapiens) for entry O=C(c1cncc(-c2cccc(OCC(O)CN3CCc4ccccc4C3)c2)c1)N1CCCC1 (stereo not shown) [Compound 181] , please look it up. 5.00 to 6.00

Lab note: need pIC50 with PRMT5/MEP50 (Homo sapiens) for entry COc1ccc2c(c1)CN(CC(O)COc1cccc(-c3ccc4ncn(C)c4c3)c1)CC2 (stereo not shown) [Compound 177] , please look it up. 4.40 to 5.00
